tested on: KBM-5 (human chronic myelogenous leukemia); assay: MTT cancer cell growth inhibition; format: cell-based; conditions: Homo sapiens, KBM5, 72 h, MTT, 72 hours incubation, KBM-5 cells; read-out: GI50 KBM-5
parameter: GI50 (nM)

Below are worked cases with known answers.
C/C=C1\NC(=O)c2ccc(SC)c(n2)CNC(=O)C[C@@H](/C=C/CCSC(C)=O)OC(=O)[C@H](Cc2ccc(O)cc2)NC1=O    53
C/C=C1\NC(=O)c2cccc(n2)CNC(=O)C[C@@H](/C=C/CCSC(=O)CCCCCCC)OC(=O)[C@H](CC)NC1=O    44
C/C=C1\NC(=O)c2cc(SC)cc(n2)CNC(=O)C[C@@H](/C=C/CCSC(C)=O)OC(=O)[C@@H](C)NC1=O    36

P: C/C=C1\NC(=O)c2nc(ccc2F)CNC(=O)C[C@@H](/C=C/CCSC(C)=O)OC(=O)[C@H](Cc2cccc3ccccc23)NC1=O
Q: C/C=C1\NC(=O)c2ccc(SCC)c(n2)CNC(=O)C[C@@H](/C=C/CCSC(=O)CCCCC)OC(=O)[C@H](C(C)C)NC1=O
Req: // returns P or Q , whichever has the lower GI50 Respond with the label that goes with your answer.
Resp: Q
(Q: 32 nM, P: 61 nM)

P: C/C=C1\NC(=O)c2cc(F)cc(n2)CCNC(=O)C[C@@H](/C=C/CCSC(C)=O)OC(=O)[C@H](C(C)C)NC1=O
Q: C/C=C1\NC(=O)c2nc(ccc2SC)CNC(=O)C[C@@H](/C=C/CCSC(C)=O)OC(=O)[C@H](Cc2ccc(O)cc2)NC1=O
Req: Parameter check: reported GI50 is higher for which label, P or Q ? Respond with the label that goes with your answer.
Resp: P
(P: 79 nM, Q: 29 nM)

P: C/C=C1\NC(=O)c2cccc(n2)NC(=O)C[C@@H](/C=C/CCSC(C)=O)OC(=O)[C@H](C(C)C)NC1=O
Q: C/C=C1\NC(=O)c2nc(ccc2SC)CNC(=O)C[C@@H](/C=C/CCSC(=O)CCCCCCC)OC(=O)[C@H](CC)NC1=O
Req: Parameter check: reported GI50 is higher for which label, P or Q ? Respond with the label that goes with your answer.
Resp: P
(P: 72 nM, Q: 33 nM)

Data origin, for the record: patent US10065990B2
